B1: Azoarcus group I ribozyme (parent)
chain: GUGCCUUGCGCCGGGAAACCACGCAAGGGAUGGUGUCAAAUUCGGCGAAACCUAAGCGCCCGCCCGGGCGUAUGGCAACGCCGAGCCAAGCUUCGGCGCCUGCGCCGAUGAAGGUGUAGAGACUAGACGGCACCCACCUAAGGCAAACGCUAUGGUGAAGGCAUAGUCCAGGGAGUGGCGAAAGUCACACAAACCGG

Variants of: B1
Experiment: reverse-splicing fitness (ratio to wild type); higher = more active; in vitro selection; Mg2+ level not given
Catalogue of variants with associated reverse-splicing fitness

Reference set, count: 10
C82G A120C C169A U176C :: 0.0179
C82U A111G A120G A145G C150G C169U :: 0.00855
C82G A111G A120G A145G C150G C169U U176G :: 0.00812
C82U A111U A120G A145U C150G U176G :: 0.00302
C82U A111G A120C A145C C150G C169G U176G :: 0.00397
C82G A111C A120U A145C C150G C169G U176C :: 0.00245
C82G A111C C150G C169A U176G :: 0.00647
C82U A111U A120G A145C C150U C169G U176A :: 0.0216
C82A A111U A120G C150U C169G :: 0.0105
C82A A111U A145G C150G :: 0.0263

(Q) Report reverse-splicing fitness for C82G A111G A120C C150A C169G U176C please.
(A) 0.0218
